assay: Cytotoxicity against C57BL/6 mouse BV-2 cells assessed as survival rate at 30 uM incubated for 24 hrs by MTT assay relative to control; format: toxicity, cell-based; conditions: read-out: Survival
viability at 24 h, 30 µM values by entry
Use % as the unit, but write only the number.

Exercise: Give its viability at 24 h, 30 µM value. Item: CCN1C[C@]2(OC(=O)c3ccccc3NC(=O)S(=O)(=O)c3cc(F)c(F)cc3F)CC[C@H](OC)[C@]34C1[C@@H](C[C@H]23)[C@@]1(O)C[C@H](OC)[C@H]2C[C@@H]4[C@]1(O)[C@H]2OC
Key: 108

Exercise: Entry CCN1C[C@]2(OC(=O)c3ccccc3NC(=O)S(=O)(=O)c3cc(Cl)ccc3F)CC[C@H](OC)[C@]34C1[C@@H](C[C@H]23)[C@@]1(O)C[C@H](OC)[C@H]2C[C@@H]4[C@]1(O)[C@H]2OC has what viability at 24 h, 30 µM?
Key: 95.1

Exercise: Can you look up the measured viability at 24 h, 30 µM of CCN1C[C@]2(OC(=O)c3ccccc3NC(=O)S(=O)(=O)c3cc(OC)ccc3OC)CC[C@H](OC)[C@]34C1[C@@H](C[C@H]23)[C@@]1(O)C[C@H](OC)[C@H]2C[C@@H]4[C@]1(O)[C@H]2OC for me?
Key: 102

Exercise: Could you share which viability at 24 h, 30 µM value was measured for CCN1C[C@]2(OC(=O)c3ccccc3NC(=O)S(=O)(=O)c3cccc(OC)c3)CC[C@H](OC)[C@]34C1[C@@H](C[C@H]23)[C@@]1(O)C[C@H](OC)[C@H]2C[C@@H]4[C@]1(O)[C@H]2OC ?
Key: 102

---

experiment: Cytotoxicity against C57BL/6 mouse BV-2 cells assessed as survival rate at 30 uM incubated for 24 hrs by MTT assay relative to control; format: toxicity, cell-based; conditions: read-out: Survival
viability at 24 h, 30 µM reference
Respond numerically; units are % and should not be typed.

Reference set (4 entries):
COC(=O)c1ccccc1NS(=O)(=O)c1ccc(Br)s1 | 99.1
CCN1C[C@]2(OC(=O)c3ccccc3NC(=O)S(=O)(=O)c3csc4ccccc34)CC[C@H](OC)[C@]34C1[C@@H](C[C@H]23)[C@@]1(O)C[C@H](OC)[C@H]2C[C@@H]4[C@]1(O)[C@H]2OC | 100
CCN1C[C@]2(OC(=O)c3ccccc3NC(=O)S(=O)(=O)c3cccc(C)c3)CC[C@H](OC)[C@]34C1[C@@H](C[C@H]23)[C@@]1(O)C[C@H](OC)[C@H]2C[C@@H]4[C@]1(O)[C@H]2OC | 106
CCN1C[C@]2(OC(=O)c3ccccc3NC(=O)c3ccc(I)cc3)CC[C@H](OC)[C@]34C1[C@@H](C[C@H]23)[C@@]1(O)C[C@H](OC)[C@H]2C[C@@H]4[C@]1(O)[C@H]2OC | 100

Exercise: Look at this compound and give its reported viability at 24 h, 30 µM. CCN1C[C@]2(OC(=O)c3ccccc3NC(=O)S(=O)(=O)c3ccc(F)cc3C)CC[C@H](OC)[C@]34C1[C@@H](C[C@H]23)[C@@]1(O)C[C@H](OC)[C@H]2C[C@@H]4[C@]1(O)[C@H]2OC
Key: 92.7

---

assay: Cytotoxicity against C57BL/6 mouse BV-2 cells assessed as survival rate at 30 uM incubated for 24 hrs by MTT assay relative to control; format: toxicity, cell-based; conditions: read-out: Survival
The molecules listed here are annotated with their viability at 24 h, 30 µM.
Answer with a number only, understood to be in %.

Here is how some molecules turned out for viability at 24 h, 30 µM.
CCN1C[C@]2(OC(=O)c3ccccc3NC(=O)S(=O)(=O)c3ccc(C)cc3)CC[C@H](OC)[C@]34C1[C@@H](C[C@H]23)[C@@]1(O)C[C@H](OC)[C@H]2C[C@@H]4[C@]1(O)[C@H]2OC | 102
CCN1C[C@]2(OC(=O)c3ccccc3NC(=O)S(=O)(=O)c3ccccc3OC)CC[C@H](OC)[C@]34C1[C@@H](C[C@H]23)[C@@]1(O)C[C@H](OC)[C@H]2C[C@@H]4[C@]1(O)[C@H]2OC | 103
CCN1C[C@]2(OC(=O)c3ccccc3NC(=O)S(=O)(=O)c3ccccc3[N+](=O)[O-])CC[C@H](OC)[C@]34C1[C@@H](C[C@H]23)[C@@]1(O)C[C@H](OC)[C@H]2C[C@@H]4[C@]1(O)[C@H]2OC | 104

Now look at this one.
Exercise: I would be grateful if you could share the reported viability at 24 h, 30 µM for CCN1C[C@]2(OC(=O)c3ccccc3NC(=O)c3cccc(OC)c3)CC[C@H](OC)[C@]34C1[C@@H](C[C@H]23)[C@@]1(O)C[C@H](OC)[C@H]2C[C@@H]4[C@]1(O)[C@H]2OC .
Key: 107
